Values compiled from paper PMC2942843.

Study Target: CbbR (His6-CbbR) (Acidithiobacillus ferrooxidans ATCC 23270) (UniProt B7JB31)
Sequence: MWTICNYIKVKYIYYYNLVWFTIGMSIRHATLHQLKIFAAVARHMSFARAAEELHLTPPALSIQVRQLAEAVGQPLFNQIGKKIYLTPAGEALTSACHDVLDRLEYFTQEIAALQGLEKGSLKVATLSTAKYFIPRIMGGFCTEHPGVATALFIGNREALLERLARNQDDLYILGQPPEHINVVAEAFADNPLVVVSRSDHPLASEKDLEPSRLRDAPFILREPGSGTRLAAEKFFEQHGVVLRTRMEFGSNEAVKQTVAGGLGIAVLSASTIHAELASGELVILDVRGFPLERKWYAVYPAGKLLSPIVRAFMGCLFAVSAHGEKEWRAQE
Measurement Protocol: EMSA
Reported Conditions: 12 mM HEPES-NaOH pH 7.9, 4 mM Tris-HCl pH 7.9, 1 mM EDTA, 60 mM KCl, 1 mM DTT, 10% glycerol, 5 ug/ul BSA, 2 ug/ul poly(dI-dC), 30 C, 15 min, 20 pmol DNA

Record Sequence	binding
ACGACGGCGGCAAGCACCGCCAACCACCGAACATCAGACGCGTAGTCACAAACCACCATCACATCAGTGATACGTTATTGAAAAAATAATAACTACTTATTAGCGCTTATGATTCACCCGCACTATAGTTCGATCATCGCTGCAGACGCAGCGATTGCGCCGGGGGCACCGGCGTCGGGCAACTGCATGGAGGTGGCATATGGCCGTCAAGACCTATAACGCGGGTGTGAAGGATTACCGG (double strand) [Pcbb2 (cbb2 operon promoter region)]	binds
CGGCAGCGAAGATCTTGAGTTGGTGCAAGGTTGCATGACGGATAGACATGCCAATAGTAAACCATACTAAATTATAATAGTAAATATATTTTACTTTTATATAGTTACAGATCGTCCACAATGCTACCCAAGCATTGGAACCTGGCAGGTGGCTCCAATCACCATCGTCTACCATGACACAAGGAGAGCAAGCATGGCCGTAAAAAAGTATGAGGCCGGAG (double strand) [Pcbb1 (cbb1 operon promoter region)]	binds
CATTGAACAGGGTCAGCTCCTGGCCATGGCGGGCGCGCAACACCTTGAGCAGATGATGGCTGGCACCTGCCGGCAGCAAAAAGGGGCCGCTTTCGGGCAGGTCGGAATCGGCGTATAAGTGAATGCGCGGCATAGGTTACGATATCGGGCAGGAGAACACAGGTGGGATTATATCATCGTGGCGCTGGCGCAGGTGGCGCATGATCAAAGACTCCGAT (double strand) [Pcbb3 (cbb3 operon promoter region)]	binds
